Hey, just so you know, these numbers are from paper PMC6019379.

Molecular target: ADAAD (Active DNA-dependent ATPase A domain) (Bos taurus, UniProt Q9TTA5, F727W)
Construct: ATPase domain fragment of bovine SMARCAL1 (RecA-like domains 1 and 2), plasmid pCP101 (pET-14b, NdeI/XhoI), E. coli BL21(DE3), Ni-NTA then DEAE-sepharose; tag removal not mentioned
Sequence (Q9TTA5 221-940 F727W limits assumed): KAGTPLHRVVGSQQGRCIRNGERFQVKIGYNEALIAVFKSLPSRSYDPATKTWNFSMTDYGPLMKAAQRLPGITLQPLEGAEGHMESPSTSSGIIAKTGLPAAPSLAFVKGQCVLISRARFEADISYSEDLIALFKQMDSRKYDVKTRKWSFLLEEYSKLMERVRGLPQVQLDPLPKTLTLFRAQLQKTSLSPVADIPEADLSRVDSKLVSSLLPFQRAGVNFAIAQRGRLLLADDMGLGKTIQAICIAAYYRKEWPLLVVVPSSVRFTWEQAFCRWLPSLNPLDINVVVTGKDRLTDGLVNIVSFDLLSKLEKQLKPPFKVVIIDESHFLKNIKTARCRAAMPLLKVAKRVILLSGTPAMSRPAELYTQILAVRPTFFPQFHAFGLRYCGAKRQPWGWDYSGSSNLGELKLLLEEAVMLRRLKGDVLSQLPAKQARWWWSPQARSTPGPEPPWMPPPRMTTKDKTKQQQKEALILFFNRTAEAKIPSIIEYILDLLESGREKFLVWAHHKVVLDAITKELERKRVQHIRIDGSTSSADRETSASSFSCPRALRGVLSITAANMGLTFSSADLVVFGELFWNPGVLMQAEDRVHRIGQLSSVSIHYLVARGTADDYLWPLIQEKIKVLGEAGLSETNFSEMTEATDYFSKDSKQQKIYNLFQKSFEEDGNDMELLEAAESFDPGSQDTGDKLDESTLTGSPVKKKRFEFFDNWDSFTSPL
Assay: intrinsic tryptophan fluorescence titration (ex […] nm, em […] nm), one-site fit
METRIC: Kd (nM)
Give bare numbers, in nM.

For "Nc1ncnc2c1ncn2[C@@H]1O[C@H](COP(=O)(O)OP(=O)(O)OP(=O)(O)O)[C@@H](O)[C@H]1O" , write its Kd.
1000
